As shown below, each of these compounds has a reported melting point value.
measure name: melting point

compound	result
O=C1CCc2c(OCCCl)cccc21	56 to 58 °C
N#CCC(O)(c1ccc(Cl)cc1)c1ccc(-c2ccc(Br)cc2)cc1 (configuration not stated)	160 to 161 °C
Cc1ccc2c(Cl)cc(S(=O)(=O)NCc3ccc(Cl)cc3)c(O)c2n1	158 to 161 °C
C#Cc1cnc2ccc(OC(SC)C(=O)NC(C)(C#N)CO)cc2c1 (configuration not stated)	78 to 80 °C
NC1=NC(c2ccc(C(F)(F)F)cc2)Nc2cccc(F)c21 (configuration not stated)	220 to 222 °C
COC(=O)C1Cc2cc(OC)ccc2N1 (racemic)	59 to 61 °C
c1ccc(C(CC2=NCCN2)c2ccccc2)cc1	173 to 175 °C
CSc1nc(N)nc(Cl)c1-c1ccc(Cl)cc1Cl	201 to 202 °C
CCOC(=O)c1nc2sc3c(c2c(=O)[nH]1)CCCC3	207 to 209 °C
CCCC(=O)N1CCN(C(=O)OC2C3=C(SCCS3)C(=O)N2c2ccc3ccc(Cl)nc3n2)CC1 (configuration not stated)	248 °C
CCc1cn(C2CC(O)C(CNC(=O)c3ccccc3)O2)c(=O)[nH]c1=O (configuration not stated)	246 to 247 °C
C=CCO/N=C(/C(=O)OCC)c1ccc(OCCOc2ccc3ccccc3c2)s1	75 to 77 °C
C[C@@H]1C(=O)N(c2ccc(C#N)c(Cl)c2)[C@@H](C)[C@H]1O	149 to 151 °C
O=C(NCc1ccccc1)OCC(=O)c1ccccc1	110 to 112 °C
COc1cccc2c(NCc3ccccc3C)nc(N)nc12	274 to 275 °C
CCC1CC(NC(C)=O)=NN1c1cccc(Cl)n1 (configuration not stated)	170 to 171 °C
O=C(O)COc1ccc(SCc2ccc(OCc3ccc(C(F)(F)F)cc3)cc2)c2c1CCCO2	143 to 144 °C
Cc1cccc(NC(=O)N2CCN(CC(=O)N3CC=C(c4cccc(C(F)(F)F)c4)n4ncc(C#N)c43)CC2)c1	138 to 140 °C
CCOC(=O)NC1=NCC(c2ccc(OCC)cc2)N1C (configuration not stated)	115 to 116 °C
ClC(Cl)(Cl)c1cccc2nnsc12	67 to 69 °C
CCOc1nnc(COc2ccc(Oc3cccc(Cl)n3)cc2)s1	92 to 94 °C
CC(C)(C)C(O)CN1C(=O)C(N)C(=O)N(c2ccccc2F)c2ccccc21 (configuration not stated)	104 to 105 °C

* * *

As shown below, each of these compounds has a reported melting point value.
measure name: melting point

compound	measure name	result
Cc1noc(NC(=O)N2CCN(c3nccc(-c4ccc(F)cc4F)n3)CC2)c1C	melting point	197 to 198 °C
CS(=O)(=O)c1nnc(S(=O)(=O)Cc2ccc(Cl)cc2)s1	melting point	159 to 160 °C
O=C1NC(=O)C(Nc2ccc(CCNCC(O)COc3ccc4ccccc4c3)cc2)S1 (stereo not given)	melting point	90 to 91 °C
COC(=O)c1c(C)nc2ccccc2c1NCc1ccc(Br)cc1	melting point	89 °C
C[C@H](c1ccc(F)cc1)N1CCN(c2cc(Oc3cccc4ncc(N)nc34)ncn2)CC1	melting point	118 °C

* * *

As shown below, each of these compounds has a reported melting point value.
measure name: melting point

compound	measure name	result
CC(=O)Nc1cccc(C(=O)Nc2cccc3cc(Br)cnc23)c1	melting point	198 to 202 °C
COc1c(N2CCC(NC(=O)OCc3ccccc3)C(C)(C)C2)c(F)cc2c(=O)c(C(=O)O)cn(C3CC3)c12 (stereo not given)	melting point	158 to 160 °C
CN1CCN(c2ccc([N+](=O)[O-])cc2)C1=O	melting point	207 to 208 °C
CC(C)CN1C(=O)[C@H](CCCC#N)C[C@H]1CO	melting point	46 to 48 °C
O=C1C=CC(=O)c2cc(C(F)(F)F)ccc21	melting point	80 to 85 °C
C[C@H](C(=O)N[C@@H](COC(=O)C(C)(C)C)Cc1ccccc1)c1ccc(NS(C)(=O)=O)c(F)c1	melting point	117 to 119 °C
COc1ccc(Cn2ccn(CC(=O)c3ccc(OC)c(OC4CCCC4)c3)c2=O)cc1	melting point	106 °C
Cc1ccc(C(=S)c2ccc3n2CCCC3C(=O)O)cc1 (stereo not given)	melting point	174 to 175 °C
CCCCCC(=O)Nc1ccc(NNC(=O)N(C)c2cccc3c2C(=O)N(C)C3=O)cc1	melting point	115 to 118 °C
Cc1cccc(NC(=O)NC2CN(C(=O)C(C)(C)C)c3ccccc3N(CC(=O)OCc3ccccc3)C2=O)c1 (stereo not given)	melting point	136 to 140 °C
CCNCCCOc1ccc(-c2ccc(C(=O)OCC)cc2)cc1-c1ccc2c(c1)C(C)(C)CCC2(C)C	melting point	148 °C
N#Cc1ccc(COc2ccc3ccccc3c2C=O)cc1	melting point	163 to 164 °C
O=c1c2ccccc2nc(-c2cc(-c3ccc(Cl)cc3)c(N3CCOCC3)s2)n1-c1ccccc1Cl	melting point	215 to 217 °C
COC(=O)C1CC(O)CN1C(=O)c1ccc(OC)cc1 (stereo not given)	melting point	92 °C
Nc1cccc(C(=O)c2cccc(C(=O)c3cccc(N)c3)c2)c1	melting point	114 to 117 °C
CCc1ccc(-c2nc3ccccc3o2)cc1	melting point	84 to 86 °C
CC(C)S(=O)(=O)Nc1cc(C(=O)c2ccccc2)ccc1N	melting point	150 to 152 °C
CCCNC(=O)c1ccsc1N=C(OCCC)OCCC	melting point	57 to 58 °C
CN1CCN=C1C(C#N)=NO	melting point	216 °C
Clc1ccc2nc(NC3=NCCN3)[nH]c2c1	melting point	241 to 242 °C
